# pIC50 values compiled below
Biological target: Amine oxidase [flavin-containing] A (Homo sapiens)
Sequence (P21397 whole entry): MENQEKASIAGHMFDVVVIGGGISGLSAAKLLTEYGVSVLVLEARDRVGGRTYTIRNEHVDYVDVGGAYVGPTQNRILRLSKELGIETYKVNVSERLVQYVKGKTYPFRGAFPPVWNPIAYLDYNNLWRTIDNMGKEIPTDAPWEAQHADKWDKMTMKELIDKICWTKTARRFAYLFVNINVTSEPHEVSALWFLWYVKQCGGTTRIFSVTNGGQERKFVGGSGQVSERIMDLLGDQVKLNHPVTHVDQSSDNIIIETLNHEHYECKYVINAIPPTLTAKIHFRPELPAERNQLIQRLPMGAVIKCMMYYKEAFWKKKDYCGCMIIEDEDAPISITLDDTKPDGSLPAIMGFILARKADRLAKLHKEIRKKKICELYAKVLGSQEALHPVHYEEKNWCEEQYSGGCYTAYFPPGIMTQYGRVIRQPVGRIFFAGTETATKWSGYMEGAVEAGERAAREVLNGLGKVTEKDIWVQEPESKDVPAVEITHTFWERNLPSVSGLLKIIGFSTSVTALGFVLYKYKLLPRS
pIC50: −log10 of the molar value.

The cases that follow already have their pIC50 on record.
Lookup: Identify measured pIC50 associated with Cc1c(C#N)c(=O)oc2cc(OCCN3CCC(Cc4ccccc4)CC3)ccc12
Found: < 5.00

Lookup: # return recorded pIC50 for entry Cc1cc(=O)oc2cc(OCCN3CCC(Cc4ccccc4)CC3)ccc12
Found: < 5.00

Lookup: Indicate its recorded pIC50; the compound in question is O=c1cc(C(F)(F)F)c2ccc(OCCN3CCC(Cc4ccccc4)CC3)cc2o1
Found: < 5.00

Lookup: Write down pIC50 measured for item Cc1cc(=O)oc2cc(OCCN3CCN(Cc4ccc(Br)cc4)CC3)ccc12
Found: < 5.00

Lookup: Query pIC50 for O=c1cc(C(F)(F)F)c2ccc(OCCN3CCN(Cc4ccc(Br)cc4)CC3)cc2o1
Found: < 5.00

More entries:
Lookup: Please indicate pIC50 recorded for Cc1c(C#N)c(=O)oc2cc(OCc3ccccc3)ccc12
Found: 5.86

Lookup: Specify pIC50 for O=c1ccc2ccc(OCCN3CCN(Cc4ccc(Br)cc4)CC3)cc2o1 and stop.
Found: < 5.00

Lookup: Using the record for Cc1c(C#N)c(=O)oc2cc(OCc3ccc(Br)cc3Br)ccc12 , state its measured pIC50.
Found: 6.14

Lookup: # return recorded pIC50 for entry O=c1cc(C(F)(F)F)c2ccc(OCc3ccc(Br)cc3)cc2o1
Found: < 5.00

Lookup: Read the entry Cc1c(C#N)c(=O)oc2cc(OCCN3CCN(Cc4ccc(Br)cc4)CC3)ccc12 and write its reported pIC50.
Found: < 5.00

---

Observed IC50 for UniProt:O42275, reported per entry below.
Sequence (O42275 whole entry): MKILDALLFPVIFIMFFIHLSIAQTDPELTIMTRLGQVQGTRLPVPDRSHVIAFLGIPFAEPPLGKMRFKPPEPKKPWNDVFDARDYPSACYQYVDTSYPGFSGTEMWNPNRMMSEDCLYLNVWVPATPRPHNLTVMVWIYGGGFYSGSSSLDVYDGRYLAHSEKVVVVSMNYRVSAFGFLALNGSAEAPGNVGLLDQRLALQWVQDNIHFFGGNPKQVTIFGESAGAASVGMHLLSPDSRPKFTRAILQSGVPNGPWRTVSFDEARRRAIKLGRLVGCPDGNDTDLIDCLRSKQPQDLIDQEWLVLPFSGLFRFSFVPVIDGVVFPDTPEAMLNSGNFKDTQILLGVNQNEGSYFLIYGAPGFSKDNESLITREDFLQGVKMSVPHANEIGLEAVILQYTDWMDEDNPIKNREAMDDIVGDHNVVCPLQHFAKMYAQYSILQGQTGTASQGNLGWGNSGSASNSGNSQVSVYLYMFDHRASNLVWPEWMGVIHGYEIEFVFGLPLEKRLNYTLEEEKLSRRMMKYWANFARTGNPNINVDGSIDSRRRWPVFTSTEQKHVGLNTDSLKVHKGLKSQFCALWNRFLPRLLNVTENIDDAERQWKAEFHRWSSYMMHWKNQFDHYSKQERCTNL

Example cases with answers are listed next.
Lookup: Identify measured IC50 obtained with UniProt:O42275 for Cc1c(C#N)c(=O)oc2cc(OCCN3CCN(Cc4ccc(Br)cc4)CC3)ccc12 .
Found: 38.5 µM

Lookup: Retrieve IC50 on UniProt:O42275; query O=c1ccc2ccc(OCCN3CCCCC3)cc2o1
Found: 54.9 µM

Lookup: System UniProt:O42275. Read-out IC50. Item O=c1ccc2ccc(OCc3ccc(Br)cc3)cc2o1 . Report value.
Found: > 100 µM

More entries:
Lookup: Please tell me the measured IC50 for O=c1cc(C(F)(F)F)c2ccc(OCc3ccc(Br)cc3)cc2o1 ; system: UniProt:O42275.
Found: > 100 µM
